Assay: Phase 1 multiple ascending dose study, pharmacokinetics
Format: in vivo
Settings: human, blood, po; SDD tablets 300 mg orally once daily, repeat (5) daily doses, mean (±SD)
VALUE KIND: Tmax
The answer consists of two parts: a number and, after it, its unit.

// query Return Tmax (reported value) for this molecule: CCc1cnc(N2CCC(c3nc(COc4ccc(-n5cnnn5)cc4)cs3)CC2)nc1 [Compound A]
// result 2.2 h

Sourced from patent US9241924B2
